test system: OV90; experiment: Primary qHTS to identify gynecologic anti-cancer compounds using libraries of approved drugs and bioactive compounds (AID 1345084); conditions: Gynecologic cancer cell panel viability, ATPlite luminescence, 48 h; series mostly up to 57.5 µM; also: % is scaled to controls: 0 for no effect and ±100 for the full control effect; nearly all actives have a fitted effect of over 55% in size
Inconclusive results are not listed. Active and inactive are the calls of the source. Calls follow the shape of the dose curve; as a rule, active = well fitted cell-killing curve with a large enough effect; inconclusive = small, poorly fitted or top-dose-only effect, or effect the other way; inactive = flat fitted curve, though single readings scatter. Where a SMILES comes first, the peptide text is derived from it. [ ]: non-standard residue; d: D form. ξ: configuration not given here. ξPhe(βξ-Me) = CC(c1ccccc1)C(N)C(=O)O; GABA = NCCCC(=O)O
property: activity change, negative = cytotoxicity

Please review the entries below; each comes with its answer.
>>> observed_result("COc1cccc2cc3c(c(O[C@@H]4O[C@H](CO[C@@H]5O[C@H](CO)[C@@H](O)[C@H](O)[C@H]5O)[C@@H](O)[C@H](O)[C@H]4O)c12)C(C)OC3=O (stereo not given in full)")
"inactive"
>>> observed_result("C[C@@H]1O[C@@H](O[C@H]2[C@H](OC(=O)[C@]34CCC(C)(C)C[C@H]3C3=CCC5[C@@]6(C)C[C@H](O)[C@H](O[C@@H]7O[C@H](CO)[C@@H](O[C@H]8OC[C@](O)(CO)[C@H]8O)[C@H](O)[C@H]7O)[C@@](C)(CO)C6[C@H](O)C[C@@]5(C)[C@]3(C)C[C@H]4O)OC[C@H](O)[C@@H]2O)[C@H](O)[C@H](O)[C@H]1O[C@@H]1OC[C@@H](O)[C@H](O[C@@H]2OC[C@](O)(CO)[C@H]2O)[C@H]1O (stereo not given in full)")
"-28.7% [at 6.55 µM] (inactive)"
>>> observed_result("CC1(C)CCC2(C(=O)OC3OCC(O)C(O)C3O)CCC3(C)C(=CCC4C5(C)CC(O)C(OC6OC(COC7OCC(O)C(O)C7O)C(O)C(O)C6O)C(C)(C)C5CCC43C)C2C1 (stereo not given)")
"4.98% [at 11.6 µM] (inactive)"
>>> observed_result("COc1cc(/C=C/CO)cc(OC)c1O[C@@H]1O[C@H](CO[C@@H]2O[C@H](CO)[C@@H](O)[C@H](O)[C@H]2O)[C@@H](O)[C@H](O)[C@H]1O")
"inactive"
>>> observed_result("CC1=CCC2C(C)(C)CCC[C@]2(C)[C@@]12CC[C@](C)(CC(=O)O)O2 (stereo not given in full)")
"inactive"

Go through the list and state activity change, negative = cytotoxicity for each entry.
1. COC(=O)[C@H](O)[C@H]1C(C)(C)[C@H](OC(=O)C(C)C)[C@@]2(O)C(=O)[C@]1(C)C1CC[C@]3(C)C(CC(=O)O[C@H]3c3ccoc3)[C@]13O[C@@H]32 (stereo not given in full)
2. CO[C@H]1C[C@@H]2CC[C@@H](C)[C@@](O)(O2)C(=O)C(=O)N2CCCC[C@H]2C(=O)O[C@H]([C@H](C)C[C@@H]2CC[C@H](n3cnnn3)[C@H](OC)C2)CC(=O)[C@H](C)/C=C(\C)[C@@H](O)[C@@H](OC)C(=O)[C@H](C)C[C@H](C)/C=C/C=C/C=C/1C
3. Nc1nc2c(c(N3CCNCC3)n1)CCC1=C2[C@@H]2CCCC[C@@H]2O1
4. CC1NC(=O)CCCNC(=O)C(Cc2c[nH]c3ccccc23)NC(=O)C(C)NC(=O)C(C(C)C)NC(=O)C(C(C)c2ccccc2)NC(=O)C(C(C)C)NC1=O (stereo not drawn) (cyclo([GABA]AV[ξPhe(βξ-Me)]VAW); configuration not given here)
5. C[C@H](C/C=C/C(C)(C)O)[C@H]1CC[C@@]2(C)[C@@H]3[C@@H](O[C@@H]4O[C@H](CO)[C@@H](O)[C@H](O)[C@H]4O)C=C4C(CC[C@H](O)C4(C)C)[C@]3(C=O)CC[C@]12C (stereo not given in full)

1: inactive; 2: inactive; 3: inactive; 4: inactive; 5: inactive

Recorded values, source PubChem BioAssay (NCATS).
